Each entry below carries its reported growth inhibition.
test: NCI Yeast Anticancer Drug Screen. Data for the sgs1 mgt1 strain (AID 161);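 note: 0% = growth of cultures given vehicle only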; conditions: S. cerevisiae sgs1 mgt1 strain, at 50.0 µM, hits give high values
The panel holds about 79,000 compounds, 15% with a hit somewhere; the sample as a whole holds those more often.
Reply with just the number (in %).

Worked examples follow.
INSERT INTO measurements (compound, measuredmetric, measured) VALUES
  ('O=C1CSC2=NC3=C(COC/C3=C\c3ccc(F)cc3)C(c3ccc(F)cc3)N12 (stereo unspecified)', 'growth inhibition', 41.9),
  ('CCN(CC)CC(=O)Nc1c(C(N)=O)nnn1Cc1cc(Cl)c(C(=O)c2ccc(Cl)cc2)c(Cl)c1', 'growth inhibition', 5.15),
  ('O=C1c2ccccc2-c2nc(-c3ccccc3)cc3c2c1nc1ccccc13', 'growth inhibition', 67.2),
  ('C/C=C\C=N\NC(=O)C(=O)N/N=C/C=C\C', 'growth inhibition', -7.55),
  ('CCOC(=O)c1ccc(N=C(N)N)cc1', 'growth inhibition', 19.8);

## Input I have this compound here, [N-]=[N+]=NC12CC3C4CC5CC3C(C1)C(C5)C4C2 , and I need its recorded growth inhibition.
## Output -6.65

## Input Give the measured growth inhibition of O=C(Nc1cccc(C(=O)NCCCO)c1)/C(=C/c1ccccc1)NC(=O)c1ccccc1 .
## Output 1.45

## Input Endpoint output: growth inhibition of O=C(COc1ccc(Cl)c(Cl)c1)Nc1ccc(C(=O)CCl)cc1 . Value?
## Output 19.4

## Input Dear colleague, I am looking for the recorded growth inhibition of the following compound: O=C1OCC(O)=C1C(c1ccc(Cl)cc1)c1cc2c(cc1O)OCO2 (stereo unspecified)
## Output -28.1

## Input So what does the record say about growth inhibition for CCCNC(=S)N=Nc1c(O)[nH]c2ccccc12 ?
## Output -25.1

## Input Would you mind telling me what growth inhibition value was observed for C=C/C=N/Nc1ccc([N+](=O)[O-])cc1[N+](=O)[O-] ?
## Output 2.2
